# testedTarget: rat cathepsin B (Rattus norvegicus, UniProt P00787)
# Sequence (P00787 80-333): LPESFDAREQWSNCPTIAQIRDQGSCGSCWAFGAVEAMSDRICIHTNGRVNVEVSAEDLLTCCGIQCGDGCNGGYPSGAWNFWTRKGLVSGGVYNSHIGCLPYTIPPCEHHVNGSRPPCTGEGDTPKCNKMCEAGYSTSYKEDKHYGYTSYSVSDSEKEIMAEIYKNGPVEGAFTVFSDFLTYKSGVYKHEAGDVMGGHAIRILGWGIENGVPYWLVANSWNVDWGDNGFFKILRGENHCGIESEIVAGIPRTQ
# assayProtocol: In vitro assay for inhibition of cathepsin B
# Type: biochemical
# particulars: r rat cathepsin B, substrate N-CBZ-Phe-Arg-AMC, pH 5.1, 10 min incubation at room temperature
# Procedure: In Vitro Assay Procedure for Cathepsin B The compounds of formula I were tested for inhibition of cathepsin B using the known method (A. J. Barret et al., Biochem. J. 1982, 201, 189-198). […] Reading is followed up for 10 min at the fluoroscan reader (excitation at 380 nm emission at 460 nm). […]
Listed below: IC50 values for each entry.
Expressed in µM, but write only the number.

Some entries whose results are on file:
COC(=O)[C@H](Cc1ccccc1)N/C=C(/NC(=O)[C@H](Cc1ccccc1)NC(=O)OCc1ccccc1)C(N)=O [Example 30a]: 1.83
CCOC(=O)/C(=C\N1CCOCC1)NC(=O)[C@H](CC(C)C)NC(=O)OCc1ccccc1: 0.45
COC(=O)CN/C=C(\NC(=O)[C@H](Cc1ccccc1)NC(=O)OCc1ccccc1)C(N)=O [Example 31b]: 0.43
CC(C)C[C@H](NC(=O)OCc1ccccc1)C(=O)N/C(=C/N1CCOCC1)C(=O)OC(C)(C)C: 0.42
CCOC(=O)/C(=C\N1CCOCC1)NC(=O)[C@H](Cc1ccccc1)NC(=O)OCc1ccccc1: 0.08
CC(C)C[C@H](NC(=O)OCc1ccccc1)C(=O)N/C(=C/N1CCOCC1)C(=O)c1ccccc1: 32.3
CC(C)C[C@H](NC(=O)OCc1ccccc1)C(=O)NC(=CN1CCOCC1)C(N)=O: 0.37
CC(C)C[C@H](NC(=O)OCc1ccccc1)C(=O)NC(=CNCCO)C(N)=O: 1.96
CC(C)C[C@H](NC(=O)OCc1ccccc1)C(=O)N/C(=C\N1CCC(NC(=O)OC(C)(C)C)C1)C(N)=O (stereo partly shown): 1.9
CC(C)C[C@H](NC(=O)OCc1ccccc1)C(=O)NC(=CNCc1ccccc1)C(N)=O: 2.28

Data request: Enter reported IC50 observed with rat cathepsin B (Rattus norvegicus, UniProt P00787) for CC(C)C[C@H](NC(=O)OCc1ccccc1)C(=O)N/C(=C/N1CCOCC1)C(=O)c1ccc(F)cc1
Data returned: 50.3

Data request: Lookup: IC50 / rat cathepsin B (Rattus norvegicus, UniProt P00787) / CCOC(=O)/C(=C\N1CCN(C)CC1)NC(=O)[C@H](CC(C)C)NC(=O)OCc1ccccc1
Data returned: 8.21

Data request: Item COC(=O)[C@H](Cc1ccccc1)N/C=C(\NC(=O)[C@H](Cc1ccccc1)NC(=O)OCc1ccccc1)C(N)=O [Example 30b] with rat cathepsin B (Rattus norvegicus, UniProt P00787) - IC50?
Data returned: 1.83

Data request: Param readout= IC50; system= rat cathepsin B (Rattus norvegicus, UniProt P00787); entry= CC(C)C[C@H](NC(=O)OCc1ccccc1)C(=O)NC(=CN)C(N)=O ; returns value.
Data returned: 4.35

Data request: What reported IC50 corresponds to CC(=O)N/C=C(/NC(=O)[C@H](CC(C)C)NC(=O)OCc1ccccc1)C(N)=O [Example 10a] on rat cathepsin B (Rattus norvegicus, UniProt P00787)?
Data returned: 45.2
